# assay-text: in vivo
# condition-set: both, hybrid sow × Piétrain boars, pig, po, 0.15 mg/kg, Tmax range

compound: Cc1ncc2n1-c1ccc(Cl)cc1C(c1ccccc1F)=NC2 [midazolam]
Tmax: 0.67 to 2 h

---

# assay-text: in vivo
# condition-set: both, hybrid sow × Piétrain boars, pig, iv, AUC (0-inf)

test-smiles: Cc1ncc2n1-c1ccc(Cl)cc1C(c1ccccc1F)=NC2
AUC(0-inf) / ng·h/mL: 18

---

# System: CYP3A
# assay-text: in vitro
# condition-set: both, hybrid sow × Piétrain boar, pig, Km
property-measured: Km (µM)

compound: Cc1ncc2n1-c1ccc(Cl)cc1C(c1ccccc1F)=NC2 [midazolam]
quantitative-result: 12.3

---

# target: CYP2C

molecule: CC(=O)OC[C@]12C[C@H](OC(=O)CC(C)C)C(C)=C[C@H]1O[C@@H]1[C@H](O)[C@@H](OC(C)=O)[C@@]2(C)[C@]12CO2 [T-2, T-2 toxin]
unit-info: µM
Ki: 14.8

---

# assay-text: in vivo
# condition-set: both, hybrid sow × Piétrain boars, pig, iv, 0.036 mg/kg, Ke
property-measured: k el (s⁻¹)

test-smiles: Cc1ncc2n1-c1ccc(Cl)cc1C(c1ccccc1F)=NC2
quantitative-result: 0.000231

---

# Test system: CYP3A
# condition-set: both, hybrid sow × Piétrain boar, pig

compound: Cc1ncc2n1-c1ccc(Cl)cc1C(c1ccccc1F)=NC2 [midazolam]
Km / µM: 11.3

---

# System: CYP2D
# assay-text: in vitro
# condition-set: both, hybrid sow × Piétrain boar, pig
pKi: −log10 of the molar value.

molecule: C[C@H]1CCCC(=O)CCC/C=C/c2cc(O)cc(O)c2C(=O)O1 [ZEA, zearalenone]
target: CYP2D
pKi: 4.26

---

# assay-text: in vivo
# condition-set: both, hybrid sow × Piétrain boars, pig, iv, 0.036 mg/kg, MRT
property-measured: MRT (min)

compound: Cc1ncc2n1-c1ccc(Cl)cc1C(c1ccccc1F)=NC2 [midazolam]
quantitative-result: 42.6

---

# assay-text: in vivo
# condition-set: both, hybrid sow × Piétrain boars, pig, po, 0.15 mg/kg, Tmax range of the other pigs

molecule: Cc1ncc2n1-c1ccc(Cl)cc1C(c1ccccc1F)=NC2 [midazolam]
Tmax: 9.6 to 90 min
